Source listed as paper PMC3189943.

- study target: HoxFU (diaphorase moiety of the NAD+-reducing soluble [NiFe]-hydrogenase, SH) (Cupriavidus necator, UniProt P22317)
- Construct: gene hoxF; HoxFU heterodimer without HoxHY and HoxI; N-terminal Strep-tag II on HoxF kept; plasmid pGE553, homologous overproduction in R. eutropha HF424; Strep-Tactin plus size exclusion; apparent 110 kDa; HoxF 67 kDa, HoxU 27 and 23 kDa (both with original termini, unidentified modification); FMN and Fe-S clusters; with NAD-reducing hydrogenase HoxS subunit gamma
- Sequence (P22317 whole entry): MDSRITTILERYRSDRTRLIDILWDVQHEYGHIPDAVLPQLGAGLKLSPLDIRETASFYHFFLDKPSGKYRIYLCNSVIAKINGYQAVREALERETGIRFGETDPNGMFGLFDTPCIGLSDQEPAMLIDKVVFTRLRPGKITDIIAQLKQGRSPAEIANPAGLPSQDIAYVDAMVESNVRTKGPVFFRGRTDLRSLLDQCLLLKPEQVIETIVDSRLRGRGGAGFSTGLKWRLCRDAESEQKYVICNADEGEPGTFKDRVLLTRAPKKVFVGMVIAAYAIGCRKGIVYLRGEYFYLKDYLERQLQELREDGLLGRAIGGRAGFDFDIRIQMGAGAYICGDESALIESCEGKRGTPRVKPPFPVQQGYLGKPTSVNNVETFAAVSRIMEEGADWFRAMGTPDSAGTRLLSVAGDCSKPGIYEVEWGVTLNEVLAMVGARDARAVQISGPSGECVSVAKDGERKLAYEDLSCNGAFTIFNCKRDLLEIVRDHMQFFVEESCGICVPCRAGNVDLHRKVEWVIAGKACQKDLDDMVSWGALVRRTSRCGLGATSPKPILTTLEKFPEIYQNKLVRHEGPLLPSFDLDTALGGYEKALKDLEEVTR
- Sequence (P22318 2-234 partner): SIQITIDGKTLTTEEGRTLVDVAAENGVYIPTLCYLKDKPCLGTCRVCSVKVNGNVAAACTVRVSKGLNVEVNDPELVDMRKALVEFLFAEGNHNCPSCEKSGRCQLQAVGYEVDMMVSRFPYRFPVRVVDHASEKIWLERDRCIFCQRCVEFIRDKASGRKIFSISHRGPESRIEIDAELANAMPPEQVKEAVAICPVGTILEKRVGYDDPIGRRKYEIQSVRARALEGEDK
- measurement notes: protein film electrochemistry, Dixon plot
- Format: biochemical
- test settings: read-out: K I(NAD+)
readout type: Ki

INPUT: Look up Ki for this compound: `NC(=O)c1ccc[n+]([C@@H]2O[C@H](COP(=O)(O)OP(=O)(O)OC[C@H]3O[C@@H](n4cnc5c(N)ncnc54)[C@H](O)[C@@H]3O)[C@@H](O)[C@H]2O)c1`
OUTPUT: 100 to 300 µM
